The reported measurements were obtained from patent US7211566B2.

- assay.protocol: Circulatory half-life in rat plasma after bolus i.v. administration
- Assay type: in vivo
- condition.info: iv, 2.5 mg/kg body weight, direct i.v. jugular administration, anaesthetized rats
Square brackets hold non-standard residues; d marks the D form. Peptide text beside a SMILES is read from it. Oic = O=C(O)[C@@H]1C[C@@H]2CCCC[C@@H]2N1; d2Nal = N[C@H](Cc1ccc2ccccc2c1)C(=O)O; αMeF = C[C@](N)(Cc1ccccc1)C(=O)O; Orn = NCCC[C@H](N)C(=O)O

molecule	half-life
CC[C@H](C)[C@H](NC(=O)[C@@H](Cc1ccc2ccccc2c1)NC(=O)[C@H](CO)NC(=O)[C@](C)(Cc1ccccc1)NC(=O)CNC(=O)[C@@H]1CCCN1C(=O)[C@@H]1C[C@@H]2CCCC[C@@H]2N1C(=O)[C@H](CCCNC(=N)N)NC(=O)[C@H](CCCN)NC(C)=O)C(=O)O [compound c] (Ac-[Orn]R[Oic]PG[αMeF]S[d2Nal]I-OH)	> 2 h
